Tested on: Salmonella enterica
Assay: Binding affinity to Salmonella enterica Threonyl-tRNA synthetase assessed as change in melting temperature at 0.5 mM incubated for 10 mins by SYPRO orange dye-based thermal shift assay
Listed here: items and their measured ΔTm.

# compound, ΔTm [°C]
measured = [
    ("C[C@@H](O)[C@H](N)C(=O)NC/C=C/Cn1cnc2cc(F)c(F)cc2c1=O", 17.2),
    ("C[C@@H](O)[C@H](N)C(=O)NC/C=C/Cn1cnc2cc3c(cc2c1=O)OCCO3", 0.6),
    ("C[C@@H](O)[C@H](N)C(=O)NC/C=C/Cn1cnc2cc(Br)c(Cl)cc2c1=O", 22.5),
    ("O=C(CC1NCCCC1O)Cn1cnc2cc(Br)c(Cl)cc2c1=O (centres undefined)", -1.4),
    ("C[C@@H](O)[C@H](N)C(=O)NC/C=C/Cn1cnc2cc(Cl)c([N+](=O)[O-])cc2c1=O", 0.5),
    ("C[C@@H](O)[C@H](N)C(=O)OCCCCn1cnc2cc(Br)c(Cl)cc2c1=O", 10.2),
    ("C[C@@H](O)[C@H](N)C(=O)NC/C=C/Cn1cnc2cc3c(cc2c1=O)OCO3", 9.5),
    ("C[C@@H](O)[C@H](N)C(=O)N1CCC(Cn2cnc3cc(Br)c(Cl)cc3c2=O)CC1", 12.4),
    ("C[C@@H](O)[C@H](N)C(=O)OC/C=C/Cn1cnc2cc(Br)c(Cl)cc2c1=O", 15.7),
]

###

Listed here: items and their measured ΔTm.
System: Salmonella enterica
Assay: Binding affinity to Salmonella enterica Threonyl-tRNA synthetase assessed as change in melting temperature at 0.5 mM incubated for 10 mins by SYPRO orange dye-based thermal shift assay
readout_name: ΔTm (°C)

# molecule, system_name, result_number
records = [
    ("COc1cc2c(=O)n(C/C=C/CNC(=O)[C@@H](N)[C@@H](C)O)cnc2cn1", "Salmonella enterica", 9.6),
    ("C[C@@H](O)[C@H](N)C(=O)OCCCn1cnc2cc(Br)c(Cl)cc2c1=O", "Salmonella enterica", 7.5),
    ("C[C@@H](O)[C@H](N)C(=O)OCCCCCCn1cnc2cc(Br)c(Cl)cc2c1=O", "Salmonella enterica", 9.9),
    ("C[C@@H](O)[C@H](N)C(=O)NS(=O)(=O)c1cccc(-c2ccc3[nH]ncc3c2)c1", "Salmonella enterica", 29.5),
]
